Let's look at some compounds and their measured cytotoxicity at 70.5 h.
# assay-comment: Human HepG2 cell viability assay in 384 well format
# Assay type: toxicity, cell-based
# Set-up: dose 125 nL, time 70.5 hour; concentration not given beside the values
# condition-summary: HepG2 cells, read-out: Inhibition

- compound: "CC(C)N1CCCC(CNC(=O)Cc2csc(-c3cccnc3)n2)C1 (stereo unspecified)"
  cytotoxicity at 70.5 h [%]: -0.239
- compound: "CN(C)C(=O)N1CCC2(CC(=O)N(c3ccc4c(c3)OCO4)C2)C1 (stereo unspecified)"
  cytotoxicity at 70.5 h [%]: 1.41
- compound: "CCCc1cc(N2CCC(NCC3(O)CCN(C)CC3)CC2)nc(C)n1"
  cytotoxicity at 70.5 h [%]: -6.43
- compound: "CC(=O)NCc1cc(-c2cccs2)n(C2CCCC2)n1"
  cytotoxicity at 70.5 h [%]: -2.19
- compound: "Cc1noc(C)c1-c1cncc(C2CCCN2Cc2cn(C)cn2)n1 (stereo unspecified)"
  cytotoxicity at 70.5 h [%]: -5.21
- compound: "CC(C)C[C@H](NC(=O)Nc1ccc(F)c(Cl)c1)C(=O)O"
  cytotoxicity at 70.5 h [%]: 6.99

* * *

# assay-comment: Human HepG2 cell viability assay in 384 well format
# Assay type: toxicity, cell-based
# Design: dose 125 nL, time 70.5 hour; concentration not given beside the values
# condition-summary: HepG2 cells, read-out: Inhibition
Below is a list of entries, each paired with its recorded cytotoxicity at 70.5 h value.

- compound: "Cc1nc(N2CCOCC2)nc(C)c1NC(=O)COc1ccccc1"
  cytotoxicity at 70.5 h: "-1.69%"
- compound: "Cc1nn(C)c(C)c1NC(=O)CNc1cc(C(F)(F)F)ccc1F"
  cytotoxicity at 70.5 h: "25%"
- compound: "Cc1nn(C)c(N(C)C)c1CNCc1cccc(Cn2cccn2)c1"
  cytotoxicity at 70.5 h: "9.51%"
- compound: "Fc1cnc(N2CCO[C@H]3CN(CC4CCCCC4)C[C@H]32)nc1"
  cytotoxicity at 70.5 h: "17.9%"
- compound: "COCCN(C)C(=O)NCCc1coc(-c2ccc(C)cc2)n1"
  cytotoxicity at 70.5 h: "7.28%"
- compound: "CC(OCC(F)(F)F)C(=O)Nc1ccc(-n2cncn2)nc1 (stereo not drawn)"
  cytotoxicity at 70.5 h: "-12.6%"
- compound: "O=C(c1ccc[nH]1)N1CC[C@@H](OCC2CC2)[C@@H]1Cc1cccnc1"
  cytotoxicity at 70.5 h: "0.146%"
- compound: "Fc1ccc(-c2nnc(CN3CCn4c(nnc4C4CC4)C3)o2)cc1"
  cytotoxicity at 70.5 h: "-5.47%"
- compound: "Cc1cccc(CN2CC[C@H]3OCC[C@@]3(C(=O)N3CCOCC3)C2)n1"
  cytotoxicity at 70.5 h: "-4.06%"
- compound: "Cn1c(=O)ccn(CC(=O)N2CCCC(n3cccn3)C2)c1=O (stereo not drawn)"
  cytotoxicity at 70.5 h: "-9.63%"
- compound: "CCN1CC(C(=O)NC(C)(C)C(=O)OC)CC1=O (stereo not drawn)"
  cytotoxicity at 70.5 h: "3.17%"
- compound: "O=C(O)c1ccn(-c2ccccc2NS(=O)(=O)c2cccc(Cl)c2F)n1"
  cytotoxicity at 70.5 h: "-7.81%"
- compound: "CCN1CCC(CNC(=O)NCc2cc(-c3ccc(C)cc3)no2)C1 (stereo not drawn)"
  cytotoxicity at 70.5 h: "-1.11%"
- compound: "CC(=O)N1N=C(c2ccccc2)OC1C(=O)NCCC1=CCCCC1 (stereo not drawn)"
  cytotoxicity at 70.5 h: "-0.565%"
- compound: "CC(C)c1nnc2n1CCN(C(=O)c1ccnc(N(C)C)c1)C2"
  cytotoxicity at 70.5 h: "-0.0863%"
- compound: "O=C(CSC1CCc2ccccc2NC1=O)NCc1ccccc1 (stereo not drawn)"
  cytotoxicity at 70.5 h: "6.38%"
- compound: "COC(=O)c1cccn1C1CCN(Cc2cccc(C(N)=O)c2)CC1"
  cytotoxicity at 70.5 h: "-0.0643%"
- compound: "COc1ccc(C(=O)Nc2c(C(=O)N(C)C)nn(C)c2C)cc1"
  cytotoxicity at 70.5 h: "-6.56%"
- compound: "CCn1cnnc1C1CCN(C(=O)COc2ccccc2OC)CC1"
  cytotoxicity at 70.5 h: "6.54%"
- compound: "COc1ccc(CN2C[C@H]3C[C@H](CN(C)C)O[C@H]3C2)cc1"
  cytotoxicity at 70.5 h: "-5.86%"
- compound: "COCC(=O)N1CCC2(CC1)CN(S(C)(=O)=O)Cc1ccccc1O2"
  cytotoxicity at 70.5 h: "-0.505%"
- compound: "CC(C)Nc1nc(N2CCCC2)nc2c1CN(c1ncc(F)cn1)CC2"
  cytotoxicity at 70.5 h: "-7.8%"
- compound: "CCCNC(=O)c1cc(-c2ccn(C(C)C)n2)n2ccccc12"
  cytotoxicity at 70.5 h: "-7.13%"

* * *

# assay-comment: Human HepG2 cell viability assay in 384 well format
# Format: toxicity, cell-based
# Set-up: dose 125 nL, time 70.5 hour; concentration not given beside the values
# condition-summary: HepG2 cells, read-out: Inhibition
# cytotoxicity at 70.5 h listing for each entry below
measurement-type: cytotoxicity at 70.5 h (%)

- compound: "O=C(c1ccccc1)N1CCCC2(CCN2Cc2cccc(F)c2)C1 (configuration not stated)"
  measurement-type: "cytotoxicity at 70.5 h"
  endpoint-result: -9.02
- compound: "O=C1NCCCCC1Sc1ccc(F)cc1F (configuration not stated)"
  measurement-type: "cytotoxicity at 70.5 h"
  endpoint-result: 7.77
- compound: "CCOC(=O)c1cnn(C2CCN(C(=O)CC(C)(C)C)CC2)c1N"
  measurement-type: "cytotoxicity at 70.5 h"
  endpoint-result: 4.77
- compound: "Cc1ccc(S(=O)(=O)Nc2c(C)nn(C)c2C)cc1C"
  measurement-type: "cytotoxicity at 70.5 h"
  endpoint-result: -5.46
- compound: "Cc1nc(CN2CCCC2c2noc(C3CC3)n2)oc1C (configuration not stated)"
  measurement-type: "cytotoxicity at 70.5 h"
  endpoint-result: -9.58
- compound: "Cc1ccc(CN2CCCC3(CCCCN3S(C)(=O)=O)C2)s1 (configuration not stated)"
  measurement-type: "cytotoxicity at 70.5 h"
  endpoint-result: 19.2
- compound: "COCCNC(=O)C1CN(Cc2cccnc2)Cc2ccnn2C1 (configuration not stated)"
  measurement-type: "cytotoxicity at 70.5 h"
  endpoint-result: -13.8
- compound: "CC(C)(C)CN1CCCC2(CCN(C(=O)c3ccc(O)nc3)C2)C1 (configuration not stated)"
  measurement-type: "cytotoxicity at 70.5 h"
  endpoint-result: -7.83
- compound: "COCCOC1CCN(C(=O)NCc2coc3ccccc23)CC1"
  measurement-type: "cytotoxicity at 70.5 h"
  endpoint-result: -6.59
- compound: "CCC(NC(=O)c1cnc(-c2cccnc2)nc1)c1ccnn1C (configuration not stated)"
  measurement-type: "cytotoxicity at 70.5 h"
  endpoint-result: 32.1
- compound: "OCc1cn(Cc2cccc(C(F)(F)F)c2)nn1"
  measurement-type: "cytotoxicity at 70.5 h"
  endpoint-result: -9.88
- compound: "Cc1ccccc1-c1cccc(CN2C[C@H]3C(=O)NC[C@@]3(C(=O)O)C2)c1"
  measurement-type: "cytotoxicity at 70.5 h"
  endpoint-result: 12.4

* * *

Entries and their cytotoxicity at 70.5 h
# assay-comment: Human HepG2 cell viability assay in 384 well format
# Assay type: toxicity, cell-based
# Set-up: dose 125 nL, time 70.5 hour; concentration not given beside the values
# condition-summary: HepG2 cells, read-out: Inhibition

- compound: "O=C(C1CCSCC1)N1CCC2(CC1)COC(COCC1CC1)C2 (stereo unspecified)"
  u: "%"
  cytotoxicity at 70.5 h: -11.3
- compound: "Cc1ccc(=O)n(CC2(O)CCN(Cc3cnc(C)nc3)CC2)n1"
  u: "%"
  cytotoxicity at 70.5 h: -10.4
- compound: "Cc1ccc(N2CCCC3(COCCN(c4ccccn4)C3)C2)nn1 (stereo unspecified)"
  u: "%"
  cytotoxicity at 70.5 h: -8.01
- compound: "CCn1cnnc1C1CCN(C(=O)c2ccc3ccccc3n2)CC1"
  u: "%"
  cytotoxicity at 70.5 h: -3.84
- compound: "C/C(=C\\c1ccccc1)CN1CCCC(c2nnc3n2CCNCC3)C1 (stereo unspecified)"
  u: "%"
  cytotoxicity at 70.5 h: -6.58
- compound: "COc1c(C(=O)N2CCOCC2)cnc2c1c(C)nn2C"
  u: "%"
  cytotoxicity at 70.5 h: 0.987

* * *

# assay-comment: Human HepG2 cell viability assay in 384 well format
# Format: toxicity, cell-based
# Set-up: dose 125 nL, time 70.5 hour; concentration not given beside the values
# condition-summary: HepG2 cells, read-out: Inhibition
measurement-type: cytotoxicity at 70.5 h (%)

- compound: "O=C(CC1CCCC1)N1C[C@H](Oc2cccnc2)[C@H]2OCCC[C@H]21"
  measurement-type: "cytotoxicity at 70.5 h"
  endpoint-result: -16.9
- compound: "CC(Sc1nc(N)cc(N)n1)c1nc(C(C)(C)C)no1 (stereo not drawn)"
  measurement-type: "cytotoxicity at 70.5 h"
  endpoint-result: -2.01
- compound: "Cc1ccc(C(=O)NC2CC2)c(-n2cnnn2)c1C"
  measurement-type: "cytotoxicity at 70.5 h"
  endpoint-result: -17.7
- compound: "O=C1N(Cc2ccc(F)c(F)c2)CCCC1(O)CNCc1ncc[nH]1 (stereo not drawn)"
  measurement-type: "cytotoxicity at 70.5 h"
  endpoint-result: -1.39
- compound: "COc1ccc(C(C)N(C)Cc2c(C(C)C)[nH]c3ncccc23)cc1 (stereo not drawn)"
  measurement-type: "cytotoxicity at 70.5 h"
  endpoint-result: 20.8
- compound: "OC1(CN2CCCC2)CCCN(Cc2cnc(-c3ccco3)nc2)C1 (stereo not drawn)"
  measurement-type: "cytotoxicity at 70.5 h"
  endpoint-result: 2.98
- compound: "Cc1nccc(NCc2cncc3c2CCN(CCN(C)C)C3)n1"
  measurement-type: "cytotoxicity at 70.5 h"
  endpoint-result: 3.96
- compound: "COC(C)c1nc(CN2CCNCC2)cs1 (stereo not drawn)"
  measurement-type: "cytotoxicity at 70.5 h"
  endpoint-result: 0.111
- compound: "Cc1cccc(N2CCN(C(=O)CN3CCN(CCO)CC3)CC2)c1"
  measurement-type: "cytotoxicity at 70.5 h"
  endpoint-result: 0.659
- compound: "Cn1ccc2c(C(=O)NCC3(C(N)=O)CCOCC3)cccc21"
  measurement-type: "cytotoxicity at 70.5 h"
  endpoint-result: 1.25
- compound: "COC[C@]12COC[C@H]1CN(C(=O)c1ccc(F)cc1C)C2"
  measurement-type: "cytotoxicity at 70.5 h"
  endpoint-result: 0.0363
- compound: "CN(C(=O)CN1CCC(NC(=O)c2cccs2)CC1)c1ccccc1"
  measurement-type: "cytotoxicity at 70.5 h"
  endpoint-result: -6.85
- compound: "CC(C)(C)n1ncc2c(=O)n(CC(=O)NCc3ccccc3)cnc21"
  measurement-type: "cytotoxicity at 70.5 h"
  endpoint-result: 7.32
- compound: "CC(=O)c1cn(CC(=O)N[C@H](C(=O)O)C(C)C)c2ccccc12"
  measurement-type: "cytotoxicity at 70.5 h"
  endpoint-result: -13.5
- compound: "CC(=O)N1CC(C)CN(C(=O)c2cnccn2)c2ccccc21 (stereo not drawn)"
  measurement-type: "cytotoxicity at 70.5 h"
  endpoint-result: -12.2
- compound: "O=C(c1cc[nH]n1)N1CCc2ccc(S(=O)(=O)N3CCOCC3)cc2C1"
  measurement-type: "cytotoxicity at 70.5 h"
  endpoint-result: 3.21
- compound: "c1cn(CC2CCOCC2)c(-c2cc(CN3CCCC3)cs2)n1"
  measurement-type: "cytotoxicity at 70.5 h"
  endpoint-result: -3.55
- compound: "COc1ccccc1CC(=O)N1CCC(NCc2cc[nH]c2)CC1"
  measurement-type: "cytotoxicity at 70.5 h"
  endpoint-result: 4.03
- compound: "Cc1cc(Nc2cnccn2)nc(C2CCCN(CCO)C2)n1 (stereo not drawn)"
  measurement-type: "cytotoxicity at 70.5 h"
  endpoint-result: -10.3
- compound: "CC(NC(=O)Cn1cc(C(N)=O)c(-c2ccccc2)n1)C1CC1 (stereo not drawn)"
  measurement-type: "cytotoxicity at 70.5 h"
  endpoint-result: -10
- compound: "Cc1ccccc1C(=O)NC1CCN(c2cnn(C)c2)C1=O (stereo not drawn)"
  measurement-type: "cytotoxicity at 70.5 h"
  endpoint-result: -4.47
- compound: "O=C(CN1CC(c2nc(C3CC3)no2)C1)NCc1ccc(F)cc1"
  measurement-type: "cytotoxicity at 70.5 h"
  endpoint-result: -4.69
- compound: "CNC(=O)CCc1cccc(C2CCCN(c3cc(C)ncn3)C2)n1 (stereo not drawn)"
  measurement-type: "cytotoxicity at 70.5 h"
  endpoint-result: -2.33
